Data credit: ChEMBL document CHEMBL1121445

assay: Partition coefficient (logP); assay type: physicochemical; details: octanol/water; read-out: logP
valueKind: logP

# smilesEntry, logP
records = [
    ("CC(C)CCC1=C(Cl)C(=O)c2ccccc2C1=O", 4.64),
    ("O=C(CCC1CCCCC1)C1=CC(=O)c2ccccc2C1=O", 4.1),
]

A. O=C1C(=O)c2ccc(O)cc2C(O)=C1CCCC1CCCCC1
B. O=C1C(=O)c2cc(Cl)ccc2C(O)=C1CCCCC1CCCCC1
*Q* // compare: A vs B , metric logP, want the smaller Provide the label of your selected option as the answer.
*A* A
(A: 4.64, B: 6.69)
